I'd be grateful if you could share measured pIC50 for these entries.
target: UniProtKB A0A1I9ZLB6; test: Fluorescence competitive ligand binding assay with probe 1-NPN; conditions: IC50, pH 7.4; 1-NPN probe
Sequence (A0A1I9ZLB6 entry or part of it): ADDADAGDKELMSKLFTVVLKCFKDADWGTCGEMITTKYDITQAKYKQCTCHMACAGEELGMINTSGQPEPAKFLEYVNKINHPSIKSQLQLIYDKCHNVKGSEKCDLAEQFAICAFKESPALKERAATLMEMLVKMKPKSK
Scale: pIC50 equals -log10([C]), with [C] in mol/L.

Which pIC50 is listed for CCC/C=C/CO [trans-2-Hexen-1-ol] ? 4.84

Queued: CC/C=C\CCO [cis-3-Hexen-1-ol] 4.88

Queued: COC(=O)c1ccccc1O [Methyl salicylate] 4.87

Queued: C=C1CCC2CC1C2(C)C (stereo not shown) 4.43

Queued: C=CC(C)(O)CCC=C(C)C (stereo not shown) 4.62

Queued: `c1ccc2ccccc2c1` 4.89

Queued: `CCCCCC=O` 5.08
